Listing: kon of selected binders
target: T1, c-Met-Fc chimera protein (UniProt P08581 25-932, limits assumed); test: SPR presumed (Biacore as in 9-1; method not given), c-Met-Fc on chip
T1 construct: Captured on the SPR chip by an anti-IgG antibody; not shown: Fc part
T1 sequence (P08581 25-932 limits assumed, change not shown): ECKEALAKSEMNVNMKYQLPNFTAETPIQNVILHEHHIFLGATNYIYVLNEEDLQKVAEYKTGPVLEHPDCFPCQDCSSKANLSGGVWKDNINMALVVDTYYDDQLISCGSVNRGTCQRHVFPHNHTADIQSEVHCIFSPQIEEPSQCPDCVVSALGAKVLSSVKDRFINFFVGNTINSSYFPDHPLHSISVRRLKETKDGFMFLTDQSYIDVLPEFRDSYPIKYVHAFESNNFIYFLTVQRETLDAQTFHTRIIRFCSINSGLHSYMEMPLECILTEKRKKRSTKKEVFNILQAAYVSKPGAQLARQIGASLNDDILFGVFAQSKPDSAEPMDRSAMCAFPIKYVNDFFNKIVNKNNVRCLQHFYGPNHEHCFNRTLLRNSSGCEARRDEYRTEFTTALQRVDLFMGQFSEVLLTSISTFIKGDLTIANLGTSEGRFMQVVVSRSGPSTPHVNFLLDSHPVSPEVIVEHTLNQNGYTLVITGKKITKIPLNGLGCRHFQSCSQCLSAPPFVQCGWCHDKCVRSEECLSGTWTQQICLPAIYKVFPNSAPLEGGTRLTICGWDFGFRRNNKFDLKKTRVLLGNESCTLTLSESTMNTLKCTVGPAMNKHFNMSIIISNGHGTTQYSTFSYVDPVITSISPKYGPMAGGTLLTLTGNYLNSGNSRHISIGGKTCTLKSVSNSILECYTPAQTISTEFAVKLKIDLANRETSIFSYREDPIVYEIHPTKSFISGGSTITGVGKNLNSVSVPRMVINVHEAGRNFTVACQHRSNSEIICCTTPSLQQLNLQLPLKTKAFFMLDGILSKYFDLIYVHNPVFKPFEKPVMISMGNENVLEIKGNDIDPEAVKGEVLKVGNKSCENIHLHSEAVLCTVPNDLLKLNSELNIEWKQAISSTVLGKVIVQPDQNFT
Bridges are numbered along the chain shown (N, C = ends). Where no end group is shown, it is not given here. [ ]: non-standard residue; d: D form. NMeR = CN[C@@H](CCCNC(=N)N)C(=O)O; NMeQ = CN[C@@H](CCC(N)=O)C(=O)O; NMeN = CN[C@@H](CC(N)=O)C(=O)O
Dear colleague, please return just the value in M⁻¹ s⁻¹, with no unit written.

Recorded results for 2 binders are shown here.
{CH2CO}-YRQFN[NMeR]RTHEVWNLDCG (thioether N-16) [D4-3-N6] = 120000
{CH2CO}-YR[NMeQ]FNRRTHEVWNLDCG (thioether N-16 (inferred)) [N3, N-methylated D4-3 peptide] = 27000

[in] // kon lookup, key: {CH2CO}-YRQFNRRTHEVW[NMeN]LDCG (thioether N-16) [N13, N-methylated D4-3 peptide]
[out] 78000
